- targetEntity: hCA XII (Homo sapiens, UniProt O43570)
- Sequence (O43570 25-354): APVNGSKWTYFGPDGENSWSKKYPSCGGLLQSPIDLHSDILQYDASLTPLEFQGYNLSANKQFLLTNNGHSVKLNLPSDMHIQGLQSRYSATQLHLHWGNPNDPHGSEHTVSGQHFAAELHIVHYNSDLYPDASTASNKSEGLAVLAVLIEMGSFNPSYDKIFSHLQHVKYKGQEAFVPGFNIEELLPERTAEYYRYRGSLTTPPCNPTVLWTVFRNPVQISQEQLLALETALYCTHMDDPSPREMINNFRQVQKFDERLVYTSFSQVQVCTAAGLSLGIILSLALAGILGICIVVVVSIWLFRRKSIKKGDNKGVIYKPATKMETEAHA
pKi: −log10 of the molar value.
The label depends only on pKi: satisfied if it is at least 8, not satisfied if it is smaller.

INPUT: Does the reported pKi for NS(=O)(=O)c1ccc(CNC(=O)[C@@H](Cc2c[nH]c3ccccc23)NC(=O)OCc2ccccc2)cc1 [compound 23] fall at or above the 8 mark?
OUTPUT: not satisfied

###

Each entry below carries its measured pKi, system: hCA I (Homo sapiens, UniProt P00915).
Sequence (P00915 2-261): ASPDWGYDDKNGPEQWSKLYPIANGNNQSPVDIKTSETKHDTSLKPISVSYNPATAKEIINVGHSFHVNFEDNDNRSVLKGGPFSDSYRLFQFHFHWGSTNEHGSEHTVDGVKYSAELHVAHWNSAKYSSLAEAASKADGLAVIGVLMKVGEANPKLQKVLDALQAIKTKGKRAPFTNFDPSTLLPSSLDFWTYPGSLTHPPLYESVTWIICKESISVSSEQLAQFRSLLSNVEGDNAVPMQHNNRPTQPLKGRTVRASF
Worth noting: pKi values are minus log10 of concentrations stated in mol/L.

CC(C)(C)OC(=O)N[C@H](Cc1ccccc1)C(=O)NCc1ccc(S(N)(=O)=O)cc1	5.42
C[C@@H](NC(=O)OC(C)(C)C)C(=O)NCc1ccc(S(N)(=O)=O)cc1	5.41
CC[C@@H](C)[C@@H](NC(=O)OC(C)(C)C)C(=O)NCCc1ccc(S(N)(=O)=O)cc1	6.46
CC(C)C[C@@H](NC(=O)OCc1ccccc1)C(=O)NCc1ccc(S(N)(=O)=O)cc1	7.21
NS(=O)(=O)c1ccc(CCNC(=O)C[C@@H](NC(=O)OCc2ccccc2)C(=O)NCCc2ccc(S(N)(=O)=O)cc2)cc1	6.16
CC(C)[C@@H](NC(=O)OCc1ccccc1)C(=O)NCc1ccc(S(N)(=O)=O)cc1	8.09
NS(=O)(=O)c1ccc(CCNC(=O)[C@@H](Cc2c[nH]c3ccccc23)NC(=O)OCc2ccccc2)cc1	6.28
CSCC[C@H](NC(=O)OC(C)(C)C)C(=O)NCCc1ccc(S(N)(=O)=O)cc1	5.36

Form field pKi for item CC(C)[C@@H](NC(=O)OC(C)(C)C)C(=O)NCCc1ccc(S(N)(=O)=O)cc1 on hCA I (Homo sapiens, UniProt P00915): 5.52

Form field pKi for item CC(C)[C@@H](NC(=O)OCc1ccccc1)C(=O)NCCc1ccc(S(N)(=O)=O)cc1 on hCA I (Homo sapiens, UniProt P00915): 7.29

###

- targetEntity: hCA II (Homo sapiens)
# pKi listing for each entry below
Worth noting: pKi values are minus log10 of concentrations stated in mol/L.

CC(C)(C)OC(=O)NCC(=O)NCc1ccc(S(N)(=O)=O)cc1	8.17
NS(=O)(=O)c1ccc(CCNC(=O)CNC(=O)OCC2c3ccccc3-c3ccccc32)cc1	8.19
CC(C)[C@@H](NC(=O)OC(C)(C)C)C(=O)NCc1ccc(S(N)(=O)=O)cc1	6.77

Noted for NS(=O)(=O)c1ccc(CNC(=O)[C@@H](Cc2c[nH]c3ccccc23)NC(=O)OCc2ccccc2)cc1 : its pKi reads 9.05

Noted for CSCC[C@@H](NC(=O)OCc1ccccc1)C(=O)NCc1ccc(S(N)(=O)=O)cc1 : its pKi reads 8.05

Noted for NS(=O)(=O)c1ccc(CNC(=O)[C@H](Cc2ccccc2)NC(=O)OCC2c3ccccc3-c3ccccc32)cc1 : its pKi reads 6.16

Noted for C[C@@H](NC(=O)OC(C)(C)C)C(=O)NCCc1ccc(S(N)(=O)=O)cc1 : its pKi reads 8.18

Noted for CC(C)C[C@@H](NC(=O)OCc1ccccc1)C(=O)NCc1ccc(S(N)(=O)=O)cc1 : its pKi reads 7.06

###

Each entry below carries its measured pKi, system: hCA XII (Homo sapiens, UniProt O43570).
Worth noting: pKi values are minus log10 of concentrations stated in mol/L.

Here is how some compounds turned out for pKi.
NS(=O)(=O)c1ccc(CNC(=O)[C@H](Cc2ccccc2)NC(=O)OCC2c3ccccc3-c3ccccc32)cc1	7.57
CC(C)C[C@@H](NC(=O)OCc1ccccc1)C(=O)NCCc1ccc(S(N)(=O)=O)cc1	7.56
NS(=O)(=O)c1ccc(CCNC(=O)[C@@H](CSc2ccccc2)NC(=O)OCc2ccccc2)cc1	8.08

// moving on: another record for pKi
Form field pKi for item CC(C)C[C@@H](NC(=O)OCc1ccccc1)C(=O)NCc1ccc(S(N)(=O)=O)cc1 on hCA XII (Homo sapiens, UniProt O43570): 7.40
